Molecular target: LSD-1 enzyme (Homo sapiens (Human))
Assay type: biochemical
pIC50: −log10 of the molar value.
Property Label: pIC50

For the molecule CN(C)CC(=O)N1CCC(CN[C@@H]2C[C@H]2c2ccccc2)(Cc2cccc(C#N)c2)CC1 , what pIC50 is on record? > 7.00

====

Listed here are compounds together with their documented pIC50.
Target: LSD-1 enzyme (Homo sapiens (Human), UniProt O60341)
Assay type: biochemical
Conditions: 1 nM LSD-1 enzyme, 1 hour preincubation at 25° C., Biotin-labeled Histone H3 peptide substrate
pIC50: −log10 of the molar value.

| Compound | pIC50 |
| --- | --- |
| CN(C)C(=O)CCN1CCC(CN[C@@H]2C[C@H]2c2ccccc2)(Cc2ccc(F)cc2)CC1 [Example 10] | > 7.00 |
| COCC1(CN[C@@H]2C[C@H]2c2ccccc2)CCNCC1 [Example 21] | > 7.00 |

Value lookup for pIC50; key = CN1CCC(CC#N)(CN[C@@H]2C[C@H]2c2ccccc2)CC1 (relative stereo) [Example 5] > 7.00
